biological target: biotinylated human Gal-3 (hGal-3) (Homo sapiens, UniProt P17931); test: Competitive binding assay: biotinylated hGal-3 binding to microplate-adsorbed asialofetuin (ASF), spectrophotometric; settings: Table 12; hGal-3; read-out: IC50 (Gal-3 inhibition)
Sequence (P17931 whole entry): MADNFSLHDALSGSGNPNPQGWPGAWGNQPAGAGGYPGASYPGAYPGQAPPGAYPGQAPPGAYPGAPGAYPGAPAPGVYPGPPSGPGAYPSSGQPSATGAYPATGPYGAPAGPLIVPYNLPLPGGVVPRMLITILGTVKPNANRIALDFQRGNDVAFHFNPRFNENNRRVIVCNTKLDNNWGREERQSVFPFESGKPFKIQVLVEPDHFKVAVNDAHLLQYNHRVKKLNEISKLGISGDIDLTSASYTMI
pIC50: −log10 of the molar value.
Listed compounds paired with reported pIC50
Recorded Metric: pIC50

Compound | Recorded Metric | Measured
CO[C@@H]1[C@@H](n2cc(-c3cc(F)c(F)c(F)c3)nn2)[C@@H](O)[C@@H](CO)O[C@H]1SC(C(=O)N(C)C1CC(F)(F)C1)C1(O)CCC(F)(F)CC1 (stereo partly drawn) | pIC50 | 7.05
CO[C@@H]1[C@@H](n2cc(-c3cc(F)c(F)c(F)c3)nn2)[C@@H](O)[C@@H](CO)O[C@H]1SC(C(=O)N1CCC(C)(C)CC1)C1(O)CCC(F)(F)CC1 (stereo partly drawn) | pIC50 | 7.05
CCC(CC)NC(=O)C(S[C@@H]1O[C@H](CO)[C@H](O)[C@H](n2cc(-c3cc(F)c(F)c(F)c3)nn2)[C@H]1OC)C1(O)CCC(F)(F)CC1 (stereo partly drawn) | pIC50 | 7.30

Taken from patent US12410208B2.
